Tgt: human transporter MATE1 (Homo sapiens, UniProt Q96FL8)
Sequence (Q96FL8 whole entry): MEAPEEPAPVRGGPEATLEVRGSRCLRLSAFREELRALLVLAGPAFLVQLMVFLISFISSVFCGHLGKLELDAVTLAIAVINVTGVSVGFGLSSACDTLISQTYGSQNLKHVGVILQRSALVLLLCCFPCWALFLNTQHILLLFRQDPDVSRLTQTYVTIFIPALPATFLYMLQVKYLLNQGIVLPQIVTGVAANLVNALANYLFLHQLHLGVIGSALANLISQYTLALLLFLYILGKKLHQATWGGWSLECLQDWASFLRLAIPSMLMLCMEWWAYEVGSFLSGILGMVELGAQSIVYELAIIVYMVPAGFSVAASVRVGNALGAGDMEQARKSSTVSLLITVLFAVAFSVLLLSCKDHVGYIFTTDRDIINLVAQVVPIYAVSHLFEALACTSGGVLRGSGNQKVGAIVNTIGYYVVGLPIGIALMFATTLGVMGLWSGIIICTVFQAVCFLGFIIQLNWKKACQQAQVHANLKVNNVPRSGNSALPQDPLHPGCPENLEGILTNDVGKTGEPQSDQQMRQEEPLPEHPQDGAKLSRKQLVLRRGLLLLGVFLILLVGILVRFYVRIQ
Protocol: In vitro ion transport assay 1, MATE1
Recorded Conditions: probe substrate 10 μM [14C]-metformin
Endpoint: IC50 (µM)
Note: unit µM is implicit; provide only the numeric part.

For the compound shown here, O=S(=O)(c1ccc(-n2cn[nH]c2=S)cc1)c1ccc(Cl)c(C(F)(F)F)c1 , give the reported IC50.
30.3

###

Tgt: human transporter OATP1B3 (Homo sapiens)
Sequence (Q9NPD5 whole entry): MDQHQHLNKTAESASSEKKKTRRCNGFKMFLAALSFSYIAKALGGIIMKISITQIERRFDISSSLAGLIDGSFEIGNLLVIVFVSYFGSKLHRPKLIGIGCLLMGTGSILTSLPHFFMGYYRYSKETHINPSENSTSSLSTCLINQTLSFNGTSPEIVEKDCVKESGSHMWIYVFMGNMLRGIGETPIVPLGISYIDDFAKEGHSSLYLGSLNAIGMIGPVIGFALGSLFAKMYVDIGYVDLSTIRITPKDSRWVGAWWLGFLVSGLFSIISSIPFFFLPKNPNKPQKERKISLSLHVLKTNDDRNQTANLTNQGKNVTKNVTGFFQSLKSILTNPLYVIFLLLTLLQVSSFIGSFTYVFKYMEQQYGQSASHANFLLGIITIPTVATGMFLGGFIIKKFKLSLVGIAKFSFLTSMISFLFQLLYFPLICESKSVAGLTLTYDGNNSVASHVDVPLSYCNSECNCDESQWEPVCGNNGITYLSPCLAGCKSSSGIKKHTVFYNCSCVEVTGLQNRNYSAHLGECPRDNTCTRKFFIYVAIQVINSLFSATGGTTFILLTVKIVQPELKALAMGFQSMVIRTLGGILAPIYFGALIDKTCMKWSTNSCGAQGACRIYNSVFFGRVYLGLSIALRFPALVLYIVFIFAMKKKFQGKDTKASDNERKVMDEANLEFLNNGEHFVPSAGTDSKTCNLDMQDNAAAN
Protocol: In vitro ion transport assay 1, OATP1B3
Recorded Conditions: probe substrate 2 μM [3H]-CCK-8
Protocol: Compound 1 was studied in the concentration range of 0.1-100 μM for its potency against transport mediated by various transporter proteins. [table]
Endpoint: pIC50
Scale: pIC50 equals -log10([C]), with [C] in mol/L.

For the compound shown here, O=S(=O)(c1ccc(-n2cn[nH]c2=S)cc1)c1ccc(Cl)c(C(F)(F)F)c1 [Compound 1] , give the reported pIC50.
4.29
